method_notes: Toxicokinetics of infigratinib in juvenile rat plasma after oral gavage
Format: in vivo, Crl:WI(Han) rat
condition: female, Crl:WI(Han), rat, plasma, po, 0.1 mg/kg/day, T1/2, Female rats, 0.1 mg/kg/day oral, PND 7
measured_quantity: half-life (h)
Just the number please, in h, no unit attached.

Record summary for CCN1CCN(c2ccc(Nc3cc(N(C)C(=O)Nc4c(Cl)c(OC)cc(OC)c4Cl)ncn3)cc2)CC1 : reported half-life = 4.7

====

method_notes: Toxicokinetics of infigratinib in juvenile rat plasma after oral gavage
Format: in vivo, Crl:WI(Han) rat
condition: male, Crl:WI(Han), rat, plasma, po, 0.1 mg/kg/day, AUC(0-t), Male rats, 0.1 mg/kg/day oral, PND 23
measured_quantity: AUC(0-t) (ng·h/mL)
Just the number please, in ng·h/mL, no unit attached.

Record summary for CCN1CCN(c2ccc(Nc3cc(N(C)C(=O)Nc4c(Cl)c(OC)cc(OC)c4Cl)ncn3)cc2)CC1 [infigratinib] : reported AUC(0-t) = 3.81

====

method_notes: Toxicokinetics of infigratinib in juvenile rat plasma after oral gavage
Assay type: in vivo, Crl:WI(Han) rat
condition: male, Crl:WI(Han), rat, plasma, po, 0.3 mg/kg/day, Cmax, Male rats, 0.3 mg/kg/day oral, PND 7
measured_quantity: Cmax (ng/mL)
Just the number please, in ng/mL, no unit attached.

Record summary for CCN1CCN(c2ccc(Nc3cc(N(C)C(=O)Nc4c(Cl)c(OC)cc(OC)c4Cl)ncn3)cc2)CC1 : reported Cmax = 11.6

====

method_notes: Toxicokinetics of infigratinib in juvenile rat plasma after oral gavage
Assay type: in vivo, Crl:WI(Han) rat
condition: male, Crl:WI(Han), rat, plasma, po, 0.3 mg/kg/day, T1/2, Male rats, 0.3 mg/kg/day oral, PND 7
measured_quantity: half-life
Answers without a unit are incomplete; give the number and then its unit.

Record summary for CCN1CCN(c2ccc(Nc3cc(N(C)C(=O)Nc4c(Cl)c(OC)cc(OC)c4Cl)ncn3)cc2)CC1 [infigratinib] : reported half-life = 5.58 h

====

method_notes: Toxicokinetics of infigratinib in juvenile rat plasma after oral gavage
Format: in vivo, Crl:WI(Han) rat
condition: male, Crl:WI(Han), rat, plasma, po, 1 mg/kg/day, Tmax, Male rats, 1.0 mg/kg/day oral, PND 12
measured_quantity: Tmax (h)
Just the number please, in h, no unit attached.

Record summary for CCN1CCN(c2ccc(Nc3cc(N(C)C(=O)Nc4c(Cl)c(OC)cc(OC)c4Cl)ncn3)cc2)CC1 : reported Tmax = 3

====

method_notes: Toxicokinetics of infigratinib in juvenile rat plasma after oral gavage
Type: in vivo, Crl:WI(Han) rat
condition: male, Crl:WI(Han), rat, plasma, po, 1 mg/kg/day, AUC(0-t), Male rats, 1.0 mg/kg/day oral, PND 7
measured_quantity: AUC(0-t) (ng·h/mL)
Just the number please, in ng·h/mL, no unit attached.

Record summary for CCN1CCN(c2ccc(Nc3cc(N(C)C(=O)Nc4c(Cl)c(OC)cc(OC)c4Cl)ncn3)cc2)CC1 [infigratinib] : reported AUC(0-t) = 375

====

method_notes: Toxicokinetics of infigratinib in juvenile rat plasma after oral gavage
Format: in vivo, Crl:WI(Han) rat
condition: male, Crl:WI(Han), rat, plasma, po, 0.1 mg/kg/day, Tmax, Male rats, 0.1 mg/kg/day oral, PND 23
measured_quantity: Tmax (h)
Just the number please, in h, no unit attached.

Record summary for CCN1CCN(c2ccc(Nc3cc(N(C)C(=O)Nc4c(Cl)c(OC)cc(OC)c4Cl)ncn3)cc2)CC1 : reported Tmax = 3

====

method_notes: Toxicokinetics of infigratinib in juvenile rat plasma after oral gavage
Assay type: in vivo, Crl:WI(Han) rat
condition: male, Crl:WI(Han), rat, plasma, po, 0.3 mg/kg/day, AUC(0-t), Male rats, 0.3 mg/kg/day oral, PND 7
measured_quantity: AUC(0-t) (µg·h/mL)
Just the number please, in µg·h/mL, no unit attached.

Record summary for CCN1CCN(c2ccc(Nc3cc(N(C)C(=O)Nc4c(Cl)c(OC)cc(OC)c4Cl)ncn3)cc2)CC1 : reported AUC(0-t) = 0.114

====

method_notes: Toxicokinetics of infigratinib in juvenile rat plasma after oral gavage
Type: in vivo, Crl:WI(Han) rat
condition: male, Crl:WI(Han), rat, plasma, po, 1 mg/kg/day, Cmax, Male rats, 1.0 mg/kg/day oral, PND 35
measured_quantity: Cmax (ng/mL)
Just the number please, in ng/mL, no unit attached.

Record summary for CCN1CCN(c2ccc(Nc3cc(N(C)C(=O)Nc4c(Cl)c(OC)cc(OC)c4Cl)ncn3)cc2)CC1 : reported Cmax = 2.98

====

method_notes: Toxicokinetics of infigratinib in juvenile rat plasma after oral gavage
Type: in vivo, Crl:WI(Han) rat
condition: male, Crl:WI(Han), rat, plasma, po, 0.1 mg/kg/day, Tmax, Male rats, 0.1 mg/kg/day oral, PND 7
measured_quantity: Tmax (h)
Just the number please, in h, no unit attached.

Record summary for CCN1CCN(c2ccc(Nc3cc(N(C)C(=O)Nc4c(Cl)c(OC)cc(OC)c4Cl)ncn3)cc2)CC1 [infigratinib] : reported Tmax = 3

====

method_notes: Toxicokinetics of infigratinib in juvenile rat plasma after oral gavage
Type: in vivo, Crl:WI(Han) rat
condition: female, Crl:WI(Han), rat, plasma, po, 0.1 mg/kg/day, Tmax, Female rats, 0.1 mg/kg/day oral, PND 23
measured_quantity: Tmax
Answers without a unit are incomplete; give the number and then its unit.

Record summary for CCN1CCN(c2ccc(Nc3cc(N(C)C(=O)Nc4c(Cl)c(OC)cc(OC)c4Cl)ncn3)cc2)CC1 [infigratinib] : reported Tmax = 3 h

====

method_notes: Toxicokinetics of infigratinib in juvenile rat plasma after oral gavage
Assay type: in vivo, Crl:WI(Han) rat
condition: female, Crl:WI(Han), rat, plasma, po, 0.1 mg/kg/day, Tmax, Female rats, 0.1 mg/kg/day oral, PND 12
measured_quantity: Tmax (h)
Just the number please, in h, no unit attached.

Record summary for CCN1CCN(c2ccc(Nc3cc(N(C)C(=O)Nc4c(Cl)c(OC)cc(OC)c4Cl)ncn3)cc2)CC1 [infigratinib] : reported Tmax = 3

====

method_notes: Toxicokinetics of infigratinib in juvenile rat plasma after oral gavage
Type: in vivo, Crl:WI(Han) rat
condition: male, Crl:WI(Han), rat, plasma, po, 0.3 mg/kg/day, Cmax, Male rats, 0.3 mg/kg/day oral, PND 35
measured_quantity: Cmax (ng/mL)
Just the number please, in ng/mL, no unit attached.

Record summary for CCN1CCN(c2ccc(Nc3cc(N(C)C(=O)Nc4c(Cl)c(OC)cc(OC)c4Cl)ncn3)cc2)CC1 : reported Cmax = 0.924

====

method_notes: Toxicokinetics of infigratinib in juvenile rat plasma after oral gavage
Assay type: in vivo, Crl:WI(Han) rat
condition: male, Crl:WI(Han), rat, plasma, po, 1 mg/kg/day, Tmax, Male rats, 1.0 mg/kg/day oral, PND 7
measured_quantity: Tmax (h)
Just the number please, in h, no unit attached.

Record summary for CCN1CCN(c2ccc(Nc3cc(N(C)C(=O)Nc4c(Cl)c(OC)cc(OC)c4Cl)ncn3)cc2)CC1 : reported Tmax = 7

====

method_notes: Toxicokinetics of infigratinib in juvenile rat plasma after oral gavage
Type: in vivo, Crl:WI(Han) rat
condition: female, Crl:WI(Han), rat, plasma, po, 0.3 mg/kg/day, AUC(0-t), Female rats, 0.3 mg/kg/day oral, PND 12
measured_quantity: AUC(0-t) (ng·h/mL)
Just the number please, in ng·h/mL, no unit attached.

Record summary for CCN1CCN(c2ccc(Nc3cc(N(C)C(=O)Nc4c(Cl)c(OC)cc(OC)c4Cl)ncn3)cc2)CC1 [infigratinib] : reported AUC(0-t) = 137

====

method_notes: Toxicokinetics of infigratinib in juvenile rat plasma after oral gavage
Format: in vivo, Crl:WI(Han) rat
condition: female, Crl:WI(Han), rat, plasma, po, 0.1 mg/kg/day, AUC(0-t), Female rats, 0.1 mg/kg/day oral, PND 23
measured_quantity: AUC(0-t) (ng·h/mL)
Just the number please, in ng·h/mL, no unit attached.

Record summary for CCN1CCN(c2ccc(Nc3cc(N(C)C(=O)Nc4c(Cl)c(OC)cc(OC)c4Cl)ncn3)cc2)CC1 : reported AUC(0-t) = 4.66

====

method_notes: Toxicokinetics of infigratinib in juvenile rat plasma after oral gavage
Format: in vivo, Crl:WI(Han) rat
condition: female, Crl:WI(Han), rat, plasma, po, 0.1 mg/kg/day, T1/2, Female rats, 0.1 mg/kg/day oral, PND 12
measured_quantity: half-life (h)
Just the number please, in h, no unit attached.

Record summary for CCN1CCN(c2ccc(Nc3cc(N(C)C(=O)Nc4c(Cl)c(OC)cc(OC)c4Cl)ncn3)cc2)CC1 : reported half-life = 5.66

====

method_notes: Toxicokinetics of infigratinib in juvenile rat plasma after oral gavage
Assay type: in vivo, Crl:WI(Han) rat
condition: female, Crl:WI(Han), rat, plasma, po, 1 mg/kg/day, Tmax, Female rats, 1.0 mg/kg/day oral, PND 7
measured_quantity: Tmax (h)
Just the number please, in h, no unit attached.

Record summary for CCN1CCN(c2ccc(Nc3cc(N(C)C(=O)Nc4c(Cl)c(OC)cc(OC)c4Cl)ncn3)cc2)CC1 : reported Tmax = 3

Cited source: paper PMC10784415
